# credit: the Human Domainome abundance scans (Beltran et al. 2025)

B1: MEF2-activating motif and SAP domain-containing transcriptional regulator, residues 170 to 204; numbered along this chain, Q6ZN01 (parent)
chain: LKLEELTVSELRQQLRLRGLPVSGTKSMLLERMRG

# Variants of: B1
# PROTOCOL_TEXT: abundance fitness (aPCA) (normalised: wild type 0, dead -1); higher = more abundant; growth selection in yeast, the domain comes from the species named
# MEASUREMENT_SETUP: Homo sapiens
Each entry gets false (0) if its abundance fitness stays under -0.4, and true (1) if its abundance fitness is -0.4 or above.

Decide: abundance fitness of G24V >= -0.4?
false (0)

One more variant: L6N
true (1)

Can you check L6G next?
false (0)

What would you report for R34W ?
false (0)

Param item: L29W
false (0)

Next entry: R32E
true (1)

Could you do the same for S9A , please?
true (1)

Ok, now L3P
true (1)

Also need Q13K , thanks.
true (1)

Request: L20G
false (0)

Then this variant: L29R
false (0)

Field entry: L30D
true (1)
